target: rat EP1 receptor (Rattus norvegicus); construct: expressed in transfected cells; host or cells: COS-1 cells, transient transfection with Lipofectamine 2000; assay: Test for confirmation of EP1 receptor antagonism: inhibition of prostaglandin E2-induced increase in intracellular calcium concentration (Method A or Method B); type: cell-based; conditions: Method B (Calcium kit II Fluo 4, FDSS 7000); rat EP1 receptor-expressing cells; prostaglandin E2 10 nM
Sequence (P70597 whole entry): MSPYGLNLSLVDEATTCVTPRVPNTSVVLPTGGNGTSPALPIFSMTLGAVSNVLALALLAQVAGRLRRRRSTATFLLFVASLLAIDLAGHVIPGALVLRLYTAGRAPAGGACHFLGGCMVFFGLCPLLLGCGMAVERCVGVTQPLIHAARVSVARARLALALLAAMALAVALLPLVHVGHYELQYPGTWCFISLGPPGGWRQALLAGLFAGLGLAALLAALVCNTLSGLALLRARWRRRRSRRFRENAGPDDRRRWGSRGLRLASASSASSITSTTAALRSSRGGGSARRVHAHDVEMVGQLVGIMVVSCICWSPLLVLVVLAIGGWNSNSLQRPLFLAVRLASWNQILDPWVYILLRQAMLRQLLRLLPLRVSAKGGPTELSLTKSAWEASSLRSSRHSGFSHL
MEASURE_NAME: pIC50
Schema: pIC50 number; meaning minus log10 of the concentration expressed in molar units.

O=C(O)c1cccc(Cc2c(-c3ccsc3)[nH]c3cc(C4CC4)c(F)cc23)n1
7.80
O=C(O)c1cccc(Cc2c(-c3cccnc3)[nH]c3cc(C4CC4)c(F)cc23)n1
7.70
COc1ccc2c(Cc3cccc(C(=O)O)n3)c(-c3ccc(F)c(F)c3)[nH]c2c1
7.64

Supply recorded pIC50 for CCOc1ccc2c(Cc3cccc(C(=O)O)n3)c(-c3ccsc3)[nH]c2c1 here.
7.37

Supply recorded pIC50 for COc1ccc2c(Cc3cccc(C(=O)O)n3)c(-c3cncs3)[nH]c2c1 here.
7.39

Supply recorded pIC50 for O=C(O)c1cccc(Cc2c(-c3ccc(F)cc3)[nH]c3cc(C4CC4)c(F)cc23)n1 here.
7.33

Supply recorded pIC50 for Cc1cc2c(Cc3cccc(C(=O)O)n3)c(-c3ccccc3)[nH]c2cc1Cl here.
7.72

Supply recorded pIC50 for CC(C)Cc1cn(-c2cccc(C(=O)O)n2)c2cc(Cl)ccc12 [Comparative Example, reference compound] here.
6.32
